- target-system: Amine oxidase [flavin-containing] B (Homo sapiens, UniProt P27338)
- test-protocol: Inhibition of human recombinant MAO-B using kynuramine as substrate preincubated with compound for 15 mins measured after 20 mins by fluorometric analysis
value-type: pIC50
For clarity, pIC50 is expressed as the negative log10 of concentration in mol/L.

For orientation, consider the following solved cases.
{"record-smiles": "CN1C(=N)N/C(=C\\c2c[nH]c3ccccc23)C1=O", "experimental-value": 4.46}
{"record-smiles": "C/N=C1\\NC(=O)/C(=C\\c2c[nH]c3c(Br)cccc23)N1C", "experimental-value": 4.89}
{"record-smiles": "C/N=C1\\NC(=O)/C(=C/c2c[nH]c3ccc(Br)cc23)N1", "experimental-value": 5.70}

input: Reported pIC50, molecule CN1C(=N)NC(=O)/C1=C\c1c[nH]c2ccc(Br)cc12 : ____
output: 4.61

input: Reported pIC50, molecule N=C1NC(=O)/C(=C/c2c[nH]c3cccc(Br)c23)N1 : ____
output: 4.55

###

- target-system: UniProt P21397
- Sequence (P21397 whole entry): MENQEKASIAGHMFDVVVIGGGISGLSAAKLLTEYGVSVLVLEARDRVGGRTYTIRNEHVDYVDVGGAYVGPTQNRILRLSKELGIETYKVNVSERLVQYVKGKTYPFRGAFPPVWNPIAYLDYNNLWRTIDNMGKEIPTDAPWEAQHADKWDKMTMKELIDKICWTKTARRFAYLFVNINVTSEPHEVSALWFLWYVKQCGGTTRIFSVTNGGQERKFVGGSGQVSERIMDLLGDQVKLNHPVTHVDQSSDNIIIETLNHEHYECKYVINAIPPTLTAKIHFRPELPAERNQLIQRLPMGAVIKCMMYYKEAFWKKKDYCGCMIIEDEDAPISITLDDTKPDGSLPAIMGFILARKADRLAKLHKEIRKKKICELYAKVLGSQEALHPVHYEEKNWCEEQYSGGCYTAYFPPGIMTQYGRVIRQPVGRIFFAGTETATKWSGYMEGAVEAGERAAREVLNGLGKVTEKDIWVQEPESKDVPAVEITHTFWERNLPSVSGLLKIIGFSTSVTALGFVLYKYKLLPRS
- test-protocol: Inhibition of human recombinant MAO-A using kynuramine as substrate preincubated with compound for 15 mins measured after 20 mins by fluorometric analysis
value-type: IC50 (nM)
Output spec: scalar in nM, unitless text.

{"record-smiles": "C/N=C1\\N(C)C(=O)/C(=C\\c2c[nH]c3c(Br)cccc23)N1C", "value-type": "IC50", "experimental-value": 153}
{"record-smiles": "C/N=C1\\N(C)C(=O)/C(=C\\c2c[nH]c3cccc(Br)c23)N1C", "value-type": "IC50", "experimental-value": 623}
{"record-smiles": "C/N=C1/N/C(=C\\c2c[nH]c3ccccc23)C(=O)N1C", "value-type": "IC50", "experimental-value": 5820}

Alright, here's another compound for you.
input: Reported IC50, compound C/N=C1\N(C)C(=O)/C(=C\c2c[nH]c3cc(Br)ccc23)N1C : ____
output: 18

###

- target-system: Amine oxidase [flavin-containing] B (Homo sapiens)
- Sequence (P27338 whole entry): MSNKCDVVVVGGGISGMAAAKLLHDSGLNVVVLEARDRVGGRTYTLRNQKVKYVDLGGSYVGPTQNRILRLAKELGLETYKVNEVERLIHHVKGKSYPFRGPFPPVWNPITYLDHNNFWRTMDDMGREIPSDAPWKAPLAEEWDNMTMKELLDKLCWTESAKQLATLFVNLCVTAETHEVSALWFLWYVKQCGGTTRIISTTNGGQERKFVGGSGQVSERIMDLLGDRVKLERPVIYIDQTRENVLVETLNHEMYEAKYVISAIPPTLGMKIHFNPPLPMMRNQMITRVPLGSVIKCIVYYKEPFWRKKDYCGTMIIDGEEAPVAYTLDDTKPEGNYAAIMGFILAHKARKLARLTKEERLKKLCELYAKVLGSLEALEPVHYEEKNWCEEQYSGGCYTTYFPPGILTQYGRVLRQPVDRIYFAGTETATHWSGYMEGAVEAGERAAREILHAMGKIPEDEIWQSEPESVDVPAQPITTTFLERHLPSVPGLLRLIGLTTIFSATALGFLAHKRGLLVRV
- test-protocol: Inhibition of human recombinant MAO-B using kynuramine as substrate preincubated with compound for 15 mins measured after 20 mins by fluorometric analysis
Measured pIC50 by item
For clarity, pIC50 is expressed as the negative log10 of concentration in mol/L.

For orientation, consider the following solved cases.
{"record-smiles": "C/N=C1\\NC(=O)/C(=C/c2c[nH]c3ccccc23)N1", "pIC50": 5.22}
{"record-smiles": "N=C1NC(=O)/C(=C/c2c[nH]c3ccc(Br)cc23)N1", "pIC50": 4.95}
{"record-smiles": "C/N=C1\\N(C)C(=O)/C(=C\\c2c[nH]c3ccccc23)N1C", "pIC50": 5.04}
{"record-smiles": "CN1C(=N)N(C)/C(=C/c2c[nH]c3cc(Br)ccc23)C1=O", "pIC50": 6.35}

input: Reported pIC50, molecule CN1C(=N)N(C)/C(=C/c2c[nH]c3ccccc23)C1=O : ____
output: 5.00

input: Reported pIC50, molecule C/N=C1/N/C(=C\c2c[nH]c3cccc(Br)c23)C(=O)N1C : ____
output: 4.57

input: Reported pIC50, molecule O=C1NC(=S)N/C1=C\c1c[nH]c2ccc(Br)cc12 : ____
output: 5.59

input: Reported pIC50, molecule CSC1=NC(=O)/C(=C/c2c[nH]c3cc(Br)ccc23)N1 : ____
output: 5.85

input: Reported pIC50, molecule C/N=C1\NC(=O)/C(=C\c2c[nH]c3ccc(Br)cc23)N1C : ____
output: 4.93

input: Reported pIC50, molecule O=C1NC(=S)N/C1=C\c1c[nH]c2c(Br)cccc12 : ____
output: 5.91

input: Reported pIC50, molecule C/N=C1\N(C)C(=O)/C(=C\c2c[nH]c3c(Br)cccc23)N1C : ____
output: 5.55
